Origin of the recorded values: patent US20160200799A1

Target: Influenza virus A/Brisbane/59/2007 (H1N1) (Influenza A virus A/Brisbane/59/2007 (H1N1))
Assay: cell-based or functional assay
Neutralizing activity (%) at 250 µg/ml overview
Express it in %; write the number only.

Solved cases (5 shown):
| binder | experimental readout | experimental result |
| --- | --- | --- |
| Group 56 representative clone F083-318, Fab-PP-type antibody (Fab, V domains shown) VH: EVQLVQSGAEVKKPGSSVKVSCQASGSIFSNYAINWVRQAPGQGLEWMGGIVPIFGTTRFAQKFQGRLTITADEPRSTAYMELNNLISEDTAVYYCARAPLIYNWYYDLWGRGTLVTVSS VL: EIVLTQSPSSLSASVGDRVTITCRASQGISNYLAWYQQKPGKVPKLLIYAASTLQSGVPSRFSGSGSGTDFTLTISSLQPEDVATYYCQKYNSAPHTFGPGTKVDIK | Neutralizing activity (%) at 250 µg/ml | 92.1 |
| Group 2 representative clone F082-220, Fab-PP-type antibody (Fab, V domains shown) VH: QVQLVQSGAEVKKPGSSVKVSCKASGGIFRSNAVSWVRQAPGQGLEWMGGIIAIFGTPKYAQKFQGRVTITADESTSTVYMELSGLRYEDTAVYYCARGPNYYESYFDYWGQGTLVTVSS VL: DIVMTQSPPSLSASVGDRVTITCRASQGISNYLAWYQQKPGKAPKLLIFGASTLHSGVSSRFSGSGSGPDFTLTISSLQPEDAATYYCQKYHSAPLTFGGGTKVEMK | Neutralizing activity (%) at 250 µg/ml | 100 |
| Group 57 representative clone F083-103, Fab-PP-type antibody (Fab, V domains shown) VH: QVQLQQSGADVKKAGSSVKVSCKASGRTFGNYAISWVRQAPGQGLEWMGGITPIFGAANYAQKFQGRVTISADLSTRMVYMDLSSLRSDDTAFYYCAGHPTYHYGSAMDYWGQGTLVTVSS VL: QSVLTQPPSVSAAPGQKVTITCSGSSSNIGNNYVSWYQQLPGTAPKLLISEGSNRPSGIPDRFSGSKSGTSATLGITGLQTGDEATYYCATWDDSLSVVLFGGGTRLTVLS | Neutralizing activity (%) at 250 µg/ml | 92.1 |
| Group 52 representative clone F083-328, Fab-PP-type antibody (Fab, V domains shown) VH: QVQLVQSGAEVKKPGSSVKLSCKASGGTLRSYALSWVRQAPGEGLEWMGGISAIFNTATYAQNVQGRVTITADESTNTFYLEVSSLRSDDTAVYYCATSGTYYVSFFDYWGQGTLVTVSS VL: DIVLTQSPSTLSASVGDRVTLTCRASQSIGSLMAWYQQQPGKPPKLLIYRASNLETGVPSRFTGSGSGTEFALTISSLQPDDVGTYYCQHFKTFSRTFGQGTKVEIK | Neutralizing activity (%) at 250 µg/ml | 100 |
| Group 38 representative clone F082-338, Fab-PP-type antibody (Fab, V domains shown) VH: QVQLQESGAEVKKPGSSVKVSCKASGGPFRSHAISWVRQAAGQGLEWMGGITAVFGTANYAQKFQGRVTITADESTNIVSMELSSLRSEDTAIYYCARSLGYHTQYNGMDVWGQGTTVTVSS VL: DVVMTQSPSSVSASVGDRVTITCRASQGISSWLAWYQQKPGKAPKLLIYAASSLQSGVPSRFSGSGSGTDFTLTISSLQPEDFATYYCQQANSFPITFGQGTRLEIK | Neutralizing activity (%) at 250 µg/ml | 100 |

Below: the item to evaluate.
Exercise: If you can, please state the reported Neutralizing activity (%) at 250 µg/ml value of Group 65 representative clone F083-366, Fab-PP-type antibody (Fab, V domains shown) VH: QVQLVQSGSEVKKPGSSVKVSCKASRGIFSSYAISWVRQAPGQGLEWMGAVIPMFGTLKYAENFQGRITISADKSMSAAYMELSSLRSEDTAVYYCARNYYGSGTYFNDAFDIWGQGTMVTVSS VL: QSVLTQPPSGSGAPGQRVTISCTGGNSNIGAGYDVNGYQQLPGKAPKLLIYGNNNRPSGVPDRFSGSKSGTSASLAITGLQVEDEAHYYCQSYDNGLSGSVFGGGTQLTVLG .
Key: 98
